experimental target: T1, VEGF (human, UniProt P15692-4 27-191, limits assumed)
T1 construct: Biotinylated in the KDR-IgG ELISA, amine-coupled to the chip in BIAcore; also called biotinylated VEGF; vascular endothelial growth factor
T1 sequence (P15692 other isoform, or with tags, fused parts or gaps limits assumed): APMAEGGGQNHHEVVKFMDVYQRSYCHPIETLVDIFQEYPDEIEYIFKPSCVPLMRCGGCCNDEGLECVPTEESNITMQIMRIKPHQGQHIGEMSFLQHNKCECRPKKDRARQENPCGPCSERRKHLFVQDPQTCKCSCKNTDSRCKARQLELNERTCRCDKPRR
assay overview: BIAcore-2000 SPR, Fab over immobilized VEGF, 25 C
Here, each record is paired with measured koff data.
measurement label: koff (s⁻¹)

{"columns": ["binder", "meas value"],
 "data": [
  ["Y0238-1 (Fab, V domains shown, From library YC-81 on the pY0192 template; Soluble Fab) VH: EVQLVESGGGLVQPGGSLRLSCAASGYTFTNYGINWVRQAPGKGLEWVGWINTYTGEPTYAADFKRRFTFSLDTSKSTAYLQMNSLRAEDTAVYYCAKYPYYRGTSHWYFDVWGQGTL VL: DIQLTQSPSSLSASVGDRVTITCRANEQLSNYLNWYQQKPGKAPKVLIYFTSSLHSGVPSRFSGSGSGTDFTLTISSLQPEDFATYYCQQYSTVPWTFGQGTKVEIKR", "9e-06"],
  ["Y0243-1 (Fab, V domains shown, Soluble Fab) VH: EVQLVESGGGLVQPGGSLRLSCAASGYDFTHYGMNWVRQAPGKGLEWVGWINTYTGEPTYAADFKRRFTFSLDTSKSTAYLQMNSLRAEDTAVYYCAKYPHYYGSSHWYFDVWGQGTL VL: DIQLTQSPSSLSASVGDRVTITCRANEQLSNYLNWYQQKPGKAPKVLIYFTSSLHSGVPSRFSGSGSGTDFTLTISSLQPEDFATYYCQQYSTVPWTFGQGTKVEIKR", "4.5e-05"],
  ["Y0244-1 (Fab, V domains shown, Soluble Fab) VH: EVQLVESGGGLVQPGGSLRLSCAASGYTFTNYGINWVRQAPGKGLEWVGWINTYTGEPTYAADFKRRFTFSVDVSKSTAYLQMNSLRAEDTAVYYCAKYPHYYGSSHWYFDVWGQGTL VL: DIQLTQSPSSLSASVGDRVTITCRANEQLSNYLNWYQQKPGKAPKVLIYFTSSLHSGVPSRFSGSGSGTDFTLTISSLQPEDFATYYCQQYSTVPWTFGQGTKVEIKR", 0.00027],
  ["Y0244-4 (Fab, V domains shown, Soluble Fab) VH: EVQLVESGGGLVQPGGSLRLSCAASGYTFTNYGINWVRQAPGKGLEWVGWINTYTGEPTYAADFKRRFTFSIDKSKSTAYLQMNSLRAEDTAVYYCAKYPHYYGSSHWYFDVWGQGTL VL: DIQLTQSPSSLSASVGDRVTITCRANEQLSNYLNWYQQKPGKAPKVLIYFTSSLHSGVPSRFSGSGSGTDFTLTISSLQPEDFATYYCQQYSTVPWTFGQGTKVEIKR", 0.00017],
  ["Y0238-10 (Fab, V domains shown, From library YC-81 on the pY0192 template; Soluble Fab) VH: EVQLVESGGGLVQPGGSLRLSCAASGYTFTNYGINWVRQAPGKGLEWVGWINTYTGEPTYAADFKRRFTFSLDTSKSTAYLQMNSLRAEDTAVYYCAKYPYYRNTSHWYFDVWGQGTL VL: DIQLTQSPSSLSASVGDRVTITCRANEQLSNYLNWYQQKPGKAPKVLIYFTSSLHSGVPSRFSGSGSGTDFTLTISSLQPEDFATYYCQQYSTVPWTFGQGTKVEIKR", "9e-06"],
  ["Y0238-5 (Fab, V domains shown, From library YC-81 on the pY0192 template; Soluble Fab) VH: EVQLVESGGGLVQPGGSLRLSCAASGYTFTNYGINWVRQAPGKGLEWVGWINTYTGEPTYAADFKRRFTFSLDTSKSTAYLQMNSLRAEDTAVYYCAKYPYYIAKSHWYFDVWGQGTL VL: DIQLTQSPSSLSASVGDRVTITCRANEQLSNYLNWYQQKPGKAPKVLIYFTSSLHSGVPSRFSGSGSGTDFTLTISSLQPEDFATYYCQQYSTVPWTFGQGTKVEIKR", "8e-06"],
  ["Y0313-3 (Fab, V domains shown, Soluble Fab) VH: EVQLVESGGGLVQPGGSLRLSCAASGYTFTNYGINWVRQAPGKGLEWVGWINTYTGEPTYAADFKRRFTFSLDTSKSTAYLQMNSLRAEDTAVYYCAKYPYYYGSSHWYFDVWGQGTL VL: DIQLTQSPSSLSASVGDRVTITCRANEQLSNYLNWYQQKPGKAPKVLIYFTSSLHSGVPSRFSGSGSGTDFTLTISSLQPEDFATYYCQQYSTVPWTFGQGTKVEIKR", "8.1e-06"]
]}
